- measurementDescription: Kinetic aqueous solubility in PBS pH 7.4
- Format: physicochemical
- runConditions: pH 7.4; read-out: Aq. solub.

molecule	solubility
CC1=C(C(=O)Nc2cc(Cl)ccc2Cl)C(c2nccs2)C2=C(CCCC2=O)N1 (stereo not shown) [Compound 47]	1 µM

* * *

The reader will find reported Emax values listed item by item below.
- studySystem: hFFA3 (Homo sapiens)
- measurementDescription: cell-based
- runConditions: HEK293, read-out: cAMP Emax

molecule	unitOfMeasurement	Emax
CCc1ccc(C2C(C(=O)Nc3ccccc3C)=C(C)NC3=C2C(=O)CCC3)cc1 (stereo not shown) [Compound 11]	%	96
CC1=C(C(=O)Nc2ccccc2C)C(c2cccc(Br)c2)C2=C(CCCC2=O)N1 (stereo not shown) [Compound 6]	%	99
COc1ccccc1NC(=O)C1=C(C)NC2=C(C(=O)CCC2)C1c1ccco1 (stereo not shown) [Compound 15]	%	99
CC1=C(C(=O)Nc2ccccc2C)C(c2ccc(Br)cc2)C2=C(CCCC2=O)N1 (stereo not shown) [Compound 7]	%	103

* * *

The reader will find reported Emax values listed item by item below.
- studySystem: hFFA3 (Homo sapiens)
- measurementDescription: cell-based
- runConditions: HEK293, read-out: cAMP Emax
readoutName: Emax (%)

molecule	studySystem	readoutName	numericReadout
CC1=C(C(=O)Nc2ccccc2C)C(c2ccco2)C2=C(CCCC2=O)N1 (centres unmarked) [Compound 1, reference compound]	hFFA3 (Homo sapiens)	Emax	105
CC1=C(C(=O)Nc2ccccc2C)C(c2cc3ccccc3o2)C2=C(CCCC2=O)N1 (centres unmarked) [Compound 45]	hFFA3 (Homo sapiens)	Emax	98
CC1=C(C(=O)Nc2ccccc2)C(c2ccco2)C2=C(CCCC2=O)N1 (centres unmarked) [Compound 12]	hFFA3 (Homo sapiens)	Emax	97
CC1=C(C(=O)Nc2ccccc2C)C(c2ccc(C(F)(F)F)cc2)C2=C(CCCC2=O)N1 (centres unmarked) [Compound 9]	hFFA3 (Homo sapiens)	Emax	101
CC1=C(C(=O)Nc2ccccc2C)C(C2CCCC2)C2=C(CCCC2=O)N1 (centres unmarked) [Compound 32]	hFFA3 (Homo sapiens)	Emax	102
CC1=C(C(=O)Nc2ccccc2C)C(c2ccc(C)cc2)C2=C(CCCC2=O)N1 (centres unmarked) [Compound 10]	hFFA3 (Homo sapiens)	Emax	97
CC1=C(C(=O)Nc2cccc(C)c2C)C(CC(C)C)C2=C(CCCC2=O)N1 (centres unmarked) [Compound 18]	hFFA3 (Homo sapiens)	Emax	97
CCC1C(C(=O)Nc2ccccc2C)=C(C)NC2=C1C(=O)CCC2 (centres unmarked) [Compound 34]	hFFA3 (Homo sapiens)	Emax	106

* * *

- studySystem: hFFA3 (Homo sapiens, UniProt O14843)
- Sequence (O14843 1-346): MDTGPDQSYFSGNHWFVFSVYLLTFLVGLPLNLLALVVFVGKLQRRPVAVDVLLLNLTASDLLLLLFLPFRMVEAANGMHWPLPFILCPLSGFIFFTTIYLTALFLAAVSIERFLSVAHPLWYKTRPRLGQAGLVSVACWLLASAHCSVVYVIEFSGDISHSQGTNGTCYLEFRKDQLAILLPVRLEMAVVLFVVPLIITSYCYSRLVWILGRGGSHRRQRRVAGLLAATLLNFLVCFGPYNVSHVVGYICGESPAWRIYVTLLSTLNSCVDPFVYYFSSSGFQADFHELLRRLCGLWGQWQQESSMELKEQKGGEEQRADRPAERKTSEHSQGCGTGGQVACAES
- measurementDescription: biochemical
- runConditions: read-out: GTPγS Emax
readoutName: Emax

compound	result
CC1=C(C(=O)Nc2ccccc2C)C(c2ccc(C(F)(F)F)cc2)C2=C(CCCC2=O)N1 (stereo not shown) [Compound 9]	116%
CC1=C(C(=O)Nc2ccccc2C)C(c2cccc(Br)c2)C2=C(CCCC2=O)N1 (stereo not shown) [Compound 6]	89%
CC1=C(C(=O)Nc2cccc(C)c2C)C(CC(C)C)C2=C(CCCC2=O)N1 (stereo not shown) [Compound 18]	88%
CC1=C(C(=O)Nc2ccccc2)C(c2ccco2)C2=C(CCCC2=O)N1 (stereo not shown) [Compound 12]	81%
